Where a name gives a salt, the structure may show the parent alone.
OBSERVATION TYPE: melting point (°C)

// below: answered compounds
>>> observed_measurement("COc1cc(NCC2CCCN(C(C)c3ccc4c(n3)OCCO4)C2)cc(C)n1 (stereo not shown) (as salt: HCl) [Product 23]")
266.7
>>> observed_measurement("Cc1cc(NCC2CCCN(C(C)c3ccc4c(n3)OCCO4)C2)cc(C)n1 (stereo not shown) (as salt: HCl) [Product 21]")
193
>>> observed_measurement("COc1cc(NCC2CCCN(C(C)c3ccc4c(c3)OCC4)C2)cc(C)n1 (stereo not shown) (as salt: HCl) [Product 30]")
261.3

1: Cc1cc(NCC2CCCN(C(C)c3cc4c(cc3F)OCCO4)C2)cc(C(F)(F)F)n1 (stereo not shown) (as salt: HCl) [Product 99]
2: Cc1cc(C[C@H]2CCCN(C(C)c3ccc4c(n3)OCC(=O)N4)C2)cc(C)n1 (single isomer, unassigned) [Product 61]
3: COc1cc(NCC2CCCN(C(C)c3cc4c(cc3F)OCCO4)C2)cc(C)n1 (stereo not shown) (as salt: HCl) [Product 38]
Returns the items ordered by melting point, from maximum to minimum. A ranking is expressed here by listing the labels in the requested order. 1, 3, 2
(1: 235.3 °C, 3: 164.7 °C, 2: 62.45 °C)

---

# TARGET DESC: OGA (Homo sapiens)
# Construct: endogenous in cells; host or cells: HEK293 cells inducible for P301L mutant human Tau (2N4R)
# METHOD NOTES: OGA cellular assay (ICC detection of O-GlcNAcylated proteins in HEK293 cells inducible for P301L mutant human Tau)
# Type: cell-based
# APPLIED CONDITIONS: HEK293, HEK293 cells inducible for P301L mutant human Tau, maximal effect; Thiamet G 200 uM as maximum
OBSERVATION TYPE: Emax (%)

>>> observed_measurement("Cc1cc(OC[C@H]2CCCN(C(C)c3ccc4c(n3)OCCO4)C2)cc(C)n1 (mixture of isomers) [Product 19]")
86

A: Cc1cc([C@H]2CCCN(C(C)c3ccc4c(n3)OCCO4)C2)cc(C)n1 (single isomer, unassigned)
B: COc1cc(OC[C@H]2CCCN([C@H](C)c3ccc4c(n3)OCCO4)C2)cc(C)n1 (single isomer, unassigned) [Product 183]
Larger number for Emax: A , or B ? Write down the label of the entry you select. A
(A: 93%, B: 65%)

P: Cc1cc(C[C@H]2CCCN(C(C)c3cnc4c(c3)OCCO4)C2)cc(C)n1 (stereo partly shown) [Product 130]
Q: Cc1cc(CC2(F)CCCN([C@@H](C)c3nc4c(cc3F)OCCO4)C2)cc(C)n1 (single isomer, unassigned)
Larger number for Emax: P , or Q ? Write down the label of the entry you select. P
(P: 83%, Q: 1%)

---

# TARGET DESC: OGA (Homo sapiens)
# Construct: endogenous in cells; host or cells: HEK293 cells inducible for P301L mutant human Tau (2N4R)
# METHOD NOTES: OGA cellular assay (ICC detection of O-GlcNAcylated proteins in HEK293 cells inducible for P301L mutant human Tau)
# Assay type: cell-based
# APPLIED CONDITIONS: HEK293 cells inducible for P301L mutant human Tau, 6 hours incubation; read-out: Cellular hOGA; pEC50 (converted)
OBSERVATION TYPE: EC50 (nM)

// below: answered molecules
>>> observed_measurement("Cc1cc(C2CCCN(C(C)c3cc4c(cc3F)NCCO4)C2)cc(C)n1 (stereo not shown)")
50.1
>>> observed_measurement("Cc1cc(C2CCCN(C(C)c3cc4c(cc3F)OCCO4)C2)cc(C(F)(F)F)n1 (stereo not shown)")
50.1
>>> observed_measurement("Cc1cc(C[C@H]2CCCN(C(C)c3cc4c(cc3F)OCCO4)C2)cc(C)n1 (single isomer, unassigned) [Product 42]")
6.31
>>> observed_measurement("Cc1cc(C2CCCN(C(C)c3ccc4c(n3)OCCO4)C2)c(F)c(C)n1 (stereo not shown)")
50.1
>>> observed_measurement("Cc1cc(NCC2CCCN(C(C)c3ccc4c(n3)OCCO4)C2)cc(C(F)(F)F)n1 (single isomer, unassigned)")
31.6
>>> observed_measurement("Cc1cc(CO[C@H]2CCCN([C@H](C)c3ccc4c(n3)OCCO4)C2)cc(C)n1 (mixture of isomers)")
316
>>> observed_measurement("CC(c1ccc2c(n1)OCCO2)N1CCC[C@H](NCc2ccc(F)cc2)C1 (stereo partly shown)")
631
>>> observed_measurement("Cc1cc(OC[C@H]2CCCN(C(C)c3ccc4c(n3)OCCO4)C2)cc(C)n1 (mixture of isomers) [Product 19]")
31.6

a: Cc1cc(C2CCCN(C(C)c3nc4c(cc3F)OCCO4)C2)c(F)c(C)n1 (stereo not shown)
b: Cc1cc([C@H]2CCCN(C(C)c3nc4c(cc3F)OCCO4)C2)cc(C)n1 (single isomer, unassigned)
c: COC1CCN(C(C)c2ccc3c(n2)OCCO3)CC1Cc1cc(C)nc(C)c1 (stereo not shown)
d: Cc1cc(C[C@H]2CCCN(C(C)c3cnc4c(c3)OCCN4)C2)cc(C)n1 (mixture of isomers) [Product 50]
Returns the items ordered by EC50, from maximum to minimum. A ranking is expressed here by listing the labels in the requested order. c, d, a, b
(c: 126 nM, d: 39.8 nM, a: 15.8 nM, b: 6.31 nM)

A: COc1cc(NC[C@H]2CCCN(C(C)c3ccc4c(n3)OCCO4)C2)cc(C)n1 (mixture of isomers) [Product 24]
B: Cc1cc(OC2CCCN(C(C)c3ccc4c(n3)OCCO4)C2)cc(C)n1 (stereo not shown)
C: Cc1cc(C2CCCN(C(C)c3cnc4c(c3)OCCN4)C2)cc(C)n1 (stereo not shown)
Endpoint returns the given molecules ordered by ascending EC50. A ranking is expressed here by listing the labels in the requested order. A, C, B

I: Cc1cc(OC[C@H]2CCCN(C(C)c3cc4c(cc3F)NCCO4)C2)cc(C)n1 (stereo partly shown)
II: Cc1cc(OC[C@H]2CCCN(C(C)c3cnc4c(c3)OCCN4)C2)cc(C)n1 (stereo partly shown)
III: Cc1cc(CC2CN(C(C)c3ccc4c(n3)OCCO4)CCC2O)cc(C)n1 (stereo not shown)
IV: Cc1cc(CC2(F)CCCN([C@H](C)c3ccc4c(n3)OCCO4)C2)cc(C)n1 (single isomer, unassigned)
V: Cc1cc(CC2(F)CCCN([C@H](C)c3nc4c(cc3F)OCCO4)C2)cc(C)n1 (single isomer, unassigned)
Returns the items ordered by EC50, from maximum to minimum. A ranking is expressed here by listing the labels in the requested order. III, IV, V, I, II

1: COc1cc(NCC2CCCN(C(C)c3ccc4c(n3)OCCO4)C2)cc(C)n1 (stereo not shown)
2: COc1cc(C2CCCN(C(C)c3ccc4c(n3)OCCO4)C2)cc(C)n1 (stereo not shown)
3: Cc1cc(C[C@H]2CCCN(C(C)c3cnc4c(c3)OCCO4)C2)cc(C)n1 (stereo partly shown) [Product 130]
Returns the items ordered by EC50, from maximum to minimum. A ranking is expressed here by listing the labels in the requested order. 3, 2, 1
(3: 158 nM, 2: 100 nM, 1: 7.94 nM)

P: Cc1cc(C[C@H]2CCCN(Cc3ccc4c(n3)OCCO4)C2)cc(C)n1
Q: Cc1cc(C2CCCN(C(C)c3nc4c(cc3F)OCCO4)C2)cc(C(F)F)n1 (stereo not shown)
Larger number for EC50: P , or Q ? Write down the label of the entry you select. P

---

# TARGET DESC: recombinant human Meningioma Expressed Antigen 5 (MGEA5), also referred to as O-GlcNAcase (OGA) (Homo sapiens, UniProt O60502)
# Construct: Full length OGA enzyme was purchased at OnGene (cat #TP322411); purchased OnGene (so in the source)
# Sequence (O60502 1-916): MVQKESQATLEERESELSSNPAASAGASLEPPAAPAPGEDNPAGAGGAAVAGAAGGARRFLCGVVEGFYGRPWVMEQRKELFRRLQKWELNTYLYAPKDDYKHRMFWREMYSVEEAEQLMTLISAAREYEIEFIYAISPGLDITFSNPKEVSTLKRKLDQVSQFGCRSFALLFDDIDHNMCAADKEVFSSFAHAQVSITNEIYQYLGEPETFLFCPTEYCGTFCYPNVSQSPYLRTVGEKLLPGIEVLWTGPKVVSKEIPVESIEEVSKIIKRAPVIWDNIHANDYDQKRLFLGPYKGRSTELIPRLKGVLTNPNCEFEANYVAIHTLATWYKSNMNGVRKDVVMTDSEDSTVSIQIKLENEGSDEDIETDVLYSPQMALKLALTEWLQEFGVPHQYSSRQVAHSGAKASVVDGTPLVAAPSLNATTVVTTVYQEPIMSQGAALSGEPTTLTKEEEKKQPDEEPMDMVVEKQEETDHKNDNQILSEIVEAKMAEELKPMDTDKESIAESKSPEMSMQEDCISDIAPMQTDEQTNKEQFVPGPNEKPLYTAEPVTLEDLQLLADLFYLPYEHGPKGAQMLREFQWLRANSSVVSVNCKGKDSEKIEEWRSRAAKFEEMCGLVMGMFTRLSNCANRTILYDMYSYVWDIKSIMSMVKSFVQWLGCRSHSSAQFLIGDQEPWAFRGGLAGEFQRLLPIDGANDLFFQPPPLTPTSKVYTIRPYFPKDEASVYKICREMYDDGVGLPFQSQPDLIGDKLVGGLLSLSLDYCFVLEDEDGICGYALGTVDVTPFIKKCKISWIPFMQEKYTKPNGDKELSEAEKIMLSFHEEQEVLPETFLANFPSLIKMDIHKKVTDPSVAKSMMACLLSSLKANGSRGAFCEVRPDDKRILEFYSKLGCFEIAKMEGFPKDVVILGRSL
# METHOD NOTES: OGA biochemical assay (inhibition of FM-GlcNAc hydrolysis, fluorescence)
# APPLIED CONDITIONS: read-out: Enzymatic hOGA, pIC50 (converted)
# Source text: The assay is based on the inhibition of the hydrolysis of fluorescein mono-β-D-N-Acetyl-Glucosamine (FM-GlcNAc) (Mariappa et al. 2015, Biochem J 470:255) by the recombinant human Meningioma Expressed Antigen 5 (MGEA5), also referred to as O-GlcNAcase (OGA). […] The fluorescence of the latter can be measured at excitation wavelength 485 nm and emission wavelength 538 nm. An increase in enzyme activity results in an increase in fluorescence signal. […]
OBSERVATION TYPE: IC50 (nM)

// below: answered molecules
>>> observed_measurement("Cc1cc([C@@H]2CCCN([C@@H](C)c3ccc4c(n3)OCCO4)C2)cc(C)n1 (single isomer, unassigned)")
3160
>>> observed_measurement("Cc1cc([C@H]2CCCN([C@H](C)c3ccc4c(n3)OCCO4)C2)c(F)c(C)n1 (single isomer, unassigned)")
2000
>>> observed_measurement("COc1cc(NC[C@H]2CCCN(C(C)c3ccc4c(n3)OCCO4)C2)cc(C)n1 (single isomer, unassigned) [Product 25]")
79.4
>>> observed_measurement("Cc1cc(NCC2CCCN(C(C)c3ccc4c(c3)OCC4)C2)cc(C)n1 (stereo not drawn)")
7.94

I: CC(c1ccc2c(n1)OCCO2)N1CCC[C@H](NCc2ccc(F)cc2)C1 (stereo partly drawn)
II: Cc1cc(C2CCCN(C(C)c3ccc4c(n3)OCCO4)C2)c(F)c(C)n1 (stereo not drawn)
III: Cc1cc([C@@H]2CCCN(C(C)c3ccc4c(n3)OCCO4)C2)cc(C)n1 (single isomer, unassigned)
IV: Cc1cc(CO[C@H]2CCCN(C(C)c3ccc4c(n3)OCCO4)C2)cc(C)n1 (single isomer, unassigned) [Product 166]
V: COc1cc(NCC2CCCN(C(C)c3cc4c(cc3F)OCCO4)C2)cc(C)n1 (stereo not drawn)
Endpoint returns the given molecules ordered by ascending IC50. A ranking is expressed here by listing the labels in the requested order. V, IV, II, I, III
(V: 6.31 nM, IV: 10 nM, II: 15.8 nM, I: 398 nM, III: 2000 nM)

1: Cc1cc(NC[C@H]2CCCN([C@H](C)c3ccc4c(n3)OCCO4)C2)cc(C(F)(F)F)n1 (single isomer, unassigned)
2: Cc1cc(OC[C@H]2CCCN(C(C)c3nc4c(cc3F)OCCO4)C2)cc(C)n1 (single isomer, unassigned) [Product 155]
3: CC(c1nc2c(cc1F)OCCO2)N1CCC[C@@H](CNc2ccc(F)cc2)C1 (stereo partly drawn)
Endpoint returns the given molecules ordered by ascending IC50. A ranking is expressed here by listing the labels in the requested order. 2, 3, 1
